procedure_summary: Oral bioavailability in rat
Format: ADME, organism-based
experimental_setup: in vivo
observation_type: bioavailability (%)
Report only the number, with the unit % understood.

Quick one: bioavailability of COc1ccccc1N1CCN(C(=O)CCc2c(-c3ccc(Br)cc3)[nH]c3ccc(C)cc23)CC1 ?
3

Also check Cn1c(-c2ccc(Cl)cc2)c(CCC(=O)N2CCC(O)(Cc3ccccc3)CC2)c2cc(Cl)ccc21
3

---

system: Substance-P receptor (Homo sapiens)
Sequence (P25103 whole entry): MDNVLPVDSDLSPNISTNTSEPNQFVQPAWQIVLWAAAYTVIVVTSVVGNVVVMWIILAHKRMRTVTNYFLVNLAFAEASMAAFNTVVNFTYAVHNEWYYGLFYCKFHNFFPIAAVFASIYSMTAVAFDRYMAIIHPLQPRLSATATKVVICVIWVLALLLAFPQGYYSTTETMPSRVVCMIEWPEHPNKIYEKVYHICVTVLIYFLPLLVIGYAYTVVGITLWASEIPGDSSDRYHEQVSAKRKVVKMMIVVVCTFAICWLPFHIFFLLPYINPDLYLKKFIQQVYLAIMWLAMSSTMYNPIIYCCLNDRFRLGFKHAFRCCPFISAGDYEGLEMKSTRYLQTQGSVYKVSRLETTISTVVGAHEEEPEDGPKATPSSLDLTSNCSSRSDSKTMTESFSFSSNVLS
procedure_summary: Ability to displace [125I]-labeled substance P from human cloned Tachykinin receptor 1 in CHO cells.
observation_type: IC50 (nM)
Report only the number, with the unit nM understood.

Quick one: IC50 of Cn1c(-c2ccc(Cl)cc2)c(CCC(=O)N2CCC(Cc3ccccc3)CC2)c2cc(Cl)ccc21 ?
2.2

Also check CCC(=O)N(c1ccccc1)C1CCN(C(=O)CCc2c(-c3ccc(Cl)cc3)n(C)c3ccc(Cl)cc23)CC1
0.16

Also check Cn1c(-c2ccc(Cl)cc2)c(CCC(=O)N2CCN(CC3CC3)CC2)c2cc(Cl)ccc21
0.78

Also check Cn1c(-c2ccc(Cl)cc2)c(CCC(=O)N2CCN(Cc3ccccc3)CC2)c2cc(Cl)ccc21
0.3

Also check Cn1c(-c2ccc(Cl)cc2)c(CCC(=O)N2CCN(CC3CCCCC3)CC2)c2cc(Cl)ccc21
2.9

Also check Cn1c(-c2ccc(Cl)cc2)c(CCC(=O)N2CCC(CO)(c3ccccc3)CC2)c2cc(Cl)ccc21
55

Also check CC(C)CCN1CCN(C(=O)CCc2c(-c3ccc(Cl)cc3)n(C)c3ccc(Cl)cc23)CC1
0.34

Also check Cn1c(-c2ccc(Cl)cc2)c(CCC(=O)N2CCN(C3CCCCC3)CC2)c2cc(Cl)ccc21
0.35

Also check Cn1c(-c2ccc(Cl)cc2)c(CCC(=O)N2CCC(Nc3ccccc3)CC2)c2cc(Cl)ccc21
1.3

Also check CN(C(=O)CN1CCN(C(=O)CCc2c(-c3ccc(Cl)cc3)n(C)c3ccc(Cl)cc23)CC1)c1ccccc1
0.13

Also check Cn1c(-c2ccc(Cl)cc2)c(CCC(=O)N2CCC(F)(Cc3ccccc3)CC2)c2cc(Cl)ccc21
0.55

Also check CC(=O)C1(c2ccccc2)CCN(C(=O)CCc2c(-c3ccc(Cl)cc3)n(C)c3ccc(Cl)cc23)CC1
0.53

Also check Cn1c(-c2ccc(Cl)cc2)c(CCC(=O)N2CCN(CC(C)(C)C)CC2)c2cc(Cl)ccc21
2
